# measured target: EGFR (UniProt P00533)
# Sequence (P00533 whole entry, looked up): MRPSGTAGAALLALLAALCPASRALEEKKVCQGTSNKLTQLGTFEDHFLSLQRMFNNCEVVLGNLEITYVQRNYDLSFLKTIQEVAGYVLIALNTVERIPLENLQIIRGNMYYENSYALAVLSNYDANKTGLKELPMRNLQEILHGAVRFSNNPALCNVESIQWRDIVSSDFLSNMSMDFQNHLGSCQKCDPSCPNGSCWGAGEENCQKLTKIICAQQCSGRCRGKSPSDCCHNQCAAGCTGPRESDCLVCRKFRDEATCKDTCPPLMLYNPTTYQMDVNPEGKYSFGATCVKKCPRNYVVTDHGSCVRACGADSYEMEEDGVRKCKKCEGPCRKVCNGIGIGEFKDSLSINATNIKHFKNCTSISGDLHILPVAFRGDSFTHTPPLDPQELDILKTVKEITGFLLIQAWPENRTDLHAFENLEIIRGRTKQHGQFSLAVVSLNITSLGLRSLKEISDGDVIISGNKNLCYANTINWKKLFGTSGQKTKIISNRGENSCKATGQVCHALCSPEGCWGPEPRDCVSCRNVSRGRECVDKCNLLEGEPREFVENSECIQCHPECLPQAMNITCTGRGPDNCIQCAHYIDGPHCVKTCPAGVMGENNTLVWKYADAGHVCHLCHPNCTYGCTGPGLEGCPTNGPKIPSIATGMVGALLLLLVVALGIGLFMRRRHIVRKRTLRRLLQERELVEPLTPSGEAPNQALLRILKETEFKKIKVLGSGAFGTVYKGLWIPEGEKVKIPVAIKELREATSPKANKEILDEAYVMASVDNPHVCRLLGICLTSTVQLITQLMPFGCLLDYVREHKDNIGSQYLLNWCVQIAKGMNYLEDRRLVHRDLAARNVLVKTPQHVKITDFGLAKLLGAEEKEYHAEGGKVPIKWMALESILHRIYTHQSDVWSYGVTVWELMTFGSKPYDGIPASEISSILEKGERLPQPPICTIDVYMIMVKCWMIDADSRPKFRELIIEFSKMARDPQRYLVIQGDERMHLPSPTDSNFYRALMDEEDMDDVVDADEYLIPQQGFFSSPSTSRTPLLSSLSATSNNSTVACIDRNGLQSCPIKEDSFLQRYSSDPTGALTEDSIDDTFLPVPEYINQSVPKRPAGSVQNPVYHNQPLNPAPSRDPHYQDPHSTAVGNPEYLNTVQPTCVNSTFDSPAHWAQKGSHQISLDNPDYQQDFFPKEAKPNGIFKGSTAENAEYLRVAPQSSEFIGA
attribute measured: IC50

- COc1cccc(Nc2ncnc3cccc(CN4CCC(N)CC4)c23)c1: 1 to 5000 nM

Report IC50 for each item below.
1. COc1cccc(Nc2ncnc3cccc(CN4CC[C@@H](N)[C@H](O)C4)c23)c1
2. CNC(=O)[C@@H]1CN(Cc2cccc3ncnc(Nc4cccc(OC)c4)c23)CC[C@H]1N

Output:
1. 1 to 5000 nM
2. 1 to 5000 nM

###

# measured target: CDK2 (human) (UniProt P24941)
# experiment summary: Cell-Based Assay
# test parameters: mda-mb-231
attribute measured: pIC50
Answers are plain numbers, as −log10 of the molar value.

Input: Can you share its pIC50? I mean this molecule: C[C@@H](Nc1nc(N[C@H]2CC[C@H](N)CC2)nc2c1ncn2C1CCCC1)c1ccccc1
Output: 5.28

###

Listed here: compounds with reported IC50 for EGFR (human).
One number for each entry, in nM.

- C=CC(=O)N1CCC[C@H](n2cnc3c(N)nc(Nc4ccc(OCCOC)cc4)nc32)C1: 104
- C=CC(=O)N1CCC[C@H](n2cnc3c(N)nc(Nc4ccc(N5CCOCC5)cc4)nc32)C1: 602

// switching to the query compound
Input: Can you share its IC50? I mean this compound: C=CC(=O)N1CCC[C@H](n2cnc3c(N)nc(Nc4ccc(N5CCCCC5)cc4)nc32)C1
Output: 350

###

Kindly supply the reported IC50 values for the records listed here.
# measured target: CDK2 (UniProt P24941)
# experiment summary: Enzyme Assay

Field: example entries. Status: answers known.
• Cc1c(C(=O)N2CCOCC2)c[nH]c1/C=C1\C(=O)Nc2ccc3c(c21)CCOS3(=O)=O = 4 nM
• CC(C)[C@H](CO)Nc1nc(Nc2cccc(Cl)c2)c2ncn(C(C)C)c2n1 = 70 nM

Report IC50 for each item below.
1. Nc1nc(Nc2ccc(S(=O)(=O)NC(=O)Cn3ncnn3)cc2)nn1C(=O)c1c(F)cccc1F
2. CON=C1/C(=C2/C(=O)Nc3cc(Br)ccc32)Nc2ccccc21
3. Cc1nc[nH]c1/C=C1\C(=O)Nc2ncnc(Nc3ccc(F)c(Cl)c3)c21
4. N[C@H]1CC[C@H](Nc2nc(NCCCn3ccnc3)c3ncn(C4CCCC4)c3n2)CC1
5. CC(C)(C)C(=O)Nc1ncc(SCc2ncc(C(C)(C)C)o2)s1
6. CC(C)(C)n1nc(Cc2cccc3ccccc23)c2c(N)ncnc21
7. N[C@H]1CC[C@H](Nc2nc(NC3CCC(O)CC3)c3ncn(C4CCCC4)c3n2)CC1 (stereo partly specified)

Output:
["430 nM", "15000 nM", "2620 nM", "20 nM", "< 50000 nM", "5 nM", "50 nM"]

Report IC50 for each item below.
1. CN(C)CCCc1c(/C=C2\C(=O)Nc3ccc4c(c32)CCOS4(=O)=O)[nH]c2ccccc12
2. CCc1cccc(CC)c1NC(=O)N1Cc2[nH]nc(NC(=O)c3ccc(N4CCN(C)CC4)cc3)c2C1

Output:
["417 nM", "> 10000 nM"]

Report IC50 for each item below.
1. COc1ccc(CNc2nc(NCCO)nc3c2ncn3NC(C)C)cc1
2. COc1ccc(-c2ccc(Nc3ncc4ccc(OC)c(C(C)C)c4n3)cc2)cc1
3. CCn1c(-c2nonc2N)nc2cnc(Oc3ccc(NC(C)=O)cc3)cc21
4. CCCCOc1cc(NC(=O)c2ccccc2)nc(N)c1C(=O)c1c(F)cccc1F
5. CC1(C)CN(c2ccc(Nc3ncc4c(n3)N(C3CCCC3)S(=O)(=O)C=C4)cc2)CCN1
6. N[C@H](COc1cncc(-c2ccc3[nH]ncc3c2)c1)Cc1c[nH]c2ccccc12
7. Cc1c(Br)c(=O)n(C2CCCC2)c2nc(Nc3ccc(N4CCNCC4)cc3)ncc12

Output:
600 nM
> 5000 nM
9900 nM
100000 nM
600 nM
63 nM
439 nM

Report IC50 for each item below.
1. O=C1NCCc2[nH]c(-c3ccnc(NC4CCCC4)c3)cc21
2. CC(C)(C)Nc1nc(C(F)(F)F)nc2ccc(-c3cccc(-c4ccccn4)c3)cc12

Output:
1: 40 nM; 2: 1200 nM
